System: HT-29
Assay: In vitro cytotoxicity against HT-29 (human colon) cell line.
Type: functional, cell-based
Test readout: IC50 (µM)
Reply numerically in µM, unit not repeated.

Some solved entries appear below for comparison.
CS(=O)(=O)c1nc2c(O)c3cc(F)ccc3nc2s1 ... 6
Oc1c2cc(F)ccc2nc2sc(Cl)nc12 ... 7.4
CSc1nc2c(N(C)CCCN(C)C)c3ccccc3nc2s1 ... 12.1

Please indicate IC50 recorded for `CCN(CC)CCNc1nc2c(O)c3cc(C)ccc3nc2s1`
3.3

---

Tested on: A549
Assay: In vitro cytotoxicity against A-549 (human lung carcinoma) cell line.
Format: functional, cell-based
Here the recorded pIC50 is given for each entry.
API: returns pIC50 as number; meaning -log10 of concentration in mol/L.

Some solved entries appear below for comparison.
Cc1ccc2nc3sc(N4CCN(C)CC4)nc3c(O)c2c1 ... 4.53
CS(=O)(=O)c1nc2c(O)c3ccccc3nc2s1 ... 4.49

Please indicate pIC50 recorded for `CSc1nc2c(N(C)CCCN(C)C)c3ccccc3nc2s1`
4.92
